Where a SMILES comes first, the peptide text is derived from it. Bridges are numbered along the chain shown (N, C = ends).
Record type: IC50 measurement. Applies to: UniProt:P04775
Sequence (P04775 whole entry): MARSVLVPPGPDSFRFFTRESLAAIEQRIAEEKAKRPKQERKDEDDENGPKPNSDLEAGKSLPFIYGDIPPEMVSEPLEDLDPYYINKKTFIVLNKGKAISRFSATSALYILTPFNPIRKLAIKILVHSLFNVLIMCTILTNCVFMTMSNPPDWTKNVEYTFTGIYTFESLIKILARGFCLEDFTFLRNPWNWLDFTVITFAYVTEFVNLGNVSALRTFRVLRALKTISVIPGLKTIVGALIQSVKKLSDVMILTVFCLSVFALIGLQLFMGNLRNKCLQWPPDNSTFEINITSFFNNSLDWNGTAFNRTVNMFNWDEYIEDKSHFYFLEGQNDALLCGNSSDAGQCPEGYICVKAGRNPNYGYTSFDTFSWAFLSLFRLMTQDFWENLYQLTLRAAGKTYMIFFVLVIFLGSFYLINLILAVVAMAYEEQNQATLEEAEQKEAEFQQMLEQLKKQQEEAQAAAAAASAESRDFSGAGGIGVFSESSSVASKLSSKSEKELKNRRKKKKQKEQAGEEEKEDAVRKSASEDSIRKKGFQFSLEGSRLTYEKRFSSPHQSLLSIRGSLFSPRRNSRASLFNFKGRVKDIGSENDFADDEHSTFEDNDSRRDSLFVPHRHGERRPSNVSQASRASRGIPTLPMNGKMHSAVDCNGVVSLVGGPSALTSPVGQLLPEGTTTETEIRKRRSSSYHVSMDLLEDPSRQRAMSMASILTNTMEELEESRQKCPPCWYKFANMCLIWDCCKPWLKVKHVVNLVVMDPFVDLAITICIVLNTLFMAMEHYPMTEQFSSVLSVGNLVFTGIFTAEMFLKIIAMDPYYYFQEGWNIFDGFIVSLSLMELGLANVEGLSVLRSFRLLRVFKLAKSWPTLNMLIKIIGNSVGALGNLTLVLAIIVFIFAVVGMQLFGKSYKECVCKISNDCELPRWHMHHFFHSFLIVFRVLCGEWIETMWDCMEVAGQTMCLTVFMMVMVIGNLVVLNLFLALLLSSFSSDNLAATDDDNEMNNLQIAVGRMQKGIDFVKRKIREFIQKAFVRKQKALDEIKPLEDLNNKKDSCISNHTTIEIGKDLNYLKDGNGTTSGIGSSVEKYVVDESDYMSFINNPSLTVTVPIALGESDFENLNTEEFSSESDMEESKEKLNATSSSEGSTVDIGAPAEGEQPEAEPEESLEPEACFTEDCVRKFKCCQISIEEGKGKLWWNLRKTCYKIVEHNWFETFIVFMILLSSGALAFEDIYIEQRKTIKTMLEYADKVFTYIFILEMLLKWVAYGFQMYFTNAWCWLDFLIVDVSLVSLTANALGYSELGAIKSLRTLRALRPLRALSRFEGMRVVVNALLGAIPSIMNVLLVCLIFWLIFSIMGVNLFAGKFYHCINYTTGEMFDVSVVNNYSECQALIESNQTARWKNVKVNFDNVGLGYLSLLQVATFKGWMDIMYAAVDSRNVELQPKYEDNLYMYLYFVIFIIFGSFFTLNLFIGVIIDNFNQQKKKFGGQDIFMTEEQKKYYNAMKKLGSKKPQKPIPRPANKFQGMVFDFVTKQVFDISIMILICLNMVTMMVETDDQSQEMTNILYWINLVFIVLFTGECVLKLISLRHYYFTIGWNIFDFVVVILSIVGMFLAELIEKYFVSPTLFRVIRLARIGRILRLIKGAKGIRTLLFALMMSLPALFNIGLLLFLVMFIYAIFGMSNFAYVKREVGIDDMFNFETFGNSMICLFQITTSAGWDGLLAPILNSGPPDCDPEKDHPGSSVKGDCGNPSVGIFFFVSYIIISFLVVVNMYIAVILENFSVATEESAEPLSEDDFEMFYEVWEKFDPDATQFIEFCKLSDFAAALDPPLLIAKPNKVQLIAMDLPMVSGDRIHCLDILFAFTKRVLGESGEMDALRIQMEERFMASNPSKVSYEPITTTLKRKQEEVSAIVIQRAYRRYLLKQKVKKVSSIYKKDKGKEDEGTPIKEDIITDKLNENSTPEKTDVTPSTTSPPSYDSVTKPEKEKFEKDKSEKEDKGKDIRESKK
Sequence (Q00954 19-218, further chain): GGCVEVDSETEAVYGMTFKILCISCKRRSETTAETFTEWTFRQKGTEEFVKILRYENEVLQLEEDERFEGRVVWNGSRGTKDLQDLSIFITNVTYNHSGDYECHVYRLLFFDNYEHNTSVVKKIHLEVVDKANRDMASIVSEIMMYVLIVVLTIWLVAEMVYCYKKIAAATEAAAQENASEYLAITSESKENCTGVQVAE
Form entry: value (µM) — number only.

>  <COMPOUND>
C[C@@H]1NC(=O)[C@H](Cc2c[nH]c3ccccc23)NC(=O)[C@H](CCCNC(=N)N)NC(=O)[C@H](CCCNC(=N)N)NC(=O)[C@@H](N)CSSC[C@@H](C(N)=O)NC(=O)[C@H](CCCNC(=N)N)NC(=O)[C@H](CCCCN)NC(=O)[C@H](Cc2c[nH]c3ccccc23)NC(=O)[C@H](CCCNC(=N)N)NC1=O [PnCS1[N8K], CRRWARWKRC ^*] (H-CRRWARWKRC-NH2; disulfide 1-10)

>  <UNITS>
µM

>  <VALUE_OBSERVED>
4.4

$$$$

Alright, here's another compound for you.
I'd like to know its IC50. The compound in question is N=C(N)NCCC[C@@H]1NC(=O)[C@H](CC(N)=O)NC(=O)[C@H](Cc2c[nH]c3ccccc23)NC(=O)[C@H](CCCNC(=N)N)NC(=O)[C@H](CCC(=O)O)NC(=O)[C@H](Cc2c[nH]c3ccccc23)NC(=O)[C@H](CCCNC(=N)N)NC(=O)[C@H](CCCNC(=N)N)NC(=O)[C@@H](N)CSSC[C@@H](C(N)=O)NC1=O [PnCS1[A5E], CRRWERWNRC ^*] (H-CRRWERWNRC-NH2; disulfide 1-10)
1.4
